Method Description: qHTS Assay for Modulators of miRNAs and/or Inhibitors of miR-21; also: potency is read from the fitted curve at half-maximal effect; nearly all actives have a fitted effect of over 55% in size
Measurement Setup: HeLa miR-21-FLuc reporter, luciferase luminescence, 48 h; actives lower the signal
Text: MLSCN Grant: 1 R21 NS059478-01 Assay Provider: Qihong Huang, The Wistar Institute NCGC Assay Overview: MicroRNAs (miRNAs) are endogenously encoded small (~20-25 nucleotides), nonprotein-coding RNAs that are involved in post-transcriptional repression of target messenger RNAs (mRNAs) (Le and Hannon, 2004). […]
Out of some 340,000 compounds screened, about 3,300 (0.97%) were called active. Inconclusive results (about 9%) are left out. Some of the results follow.
# Potency per record follows

Examples with their reported Potency follow.
## Input Supply measured Potency of CCC(=O)Nc1ccc2nc(C3CC3)n(Cc3ccc(C(C)(C)C)cc3)c(=O)c2c1 in your reply.
## Output 0.185 µM (active)

## Input Supply measured Potency of COc1ccc(NC(=O)CSc2nnc(NC(=O)Nc3ccc(OC)cc3)s2)cc1 in your reply.
## Output 0.826 µM (active)

## Input Supply measured Potency of Cc1cc(NC(=O)CSc2nc3c(cc2C#N)CCCC3)no1 in your reply.
## Output 1.47 µM (active)

## Input Supply measured Potency of Cc1nc(-c2ccc(Cl)cc2)sc1C(=O)O in your reply.
## Output 11.7 µM (active)

Others:
## Input Supply measured Potency of O=C(O)c1ccc(N=Nc2c(O)[nH]c3cc(Cl)ccc23)cc1 in your reply.
## Output 0.165 µM (active)

## Input Supply measured Potency of CCOC(=O)c1sc2nc3c(cc2c1N)COC(C)(C)C3 in your reply.
## Output 1.17 µM (active)

## Input Supply measured Potency of COc1ccc(OCc2cc(C(=O)N(C)Cc3nnc(C)o3)no2)c(Cl)c1 in your reply.
## Output 14.7 µM (active)

## Input Supply measured Potency of O=S(=O)(Nc1ccc2oc(-c3ccccc3)nc2c1)c1ccccc1 in your reply.
## Output 18.5 µM (active)

## Input Supply measured Potency of CC(O)CNc1ncnc2cc(-c3ccc(F)cc3)sc12 (stereo not drawn) in your reply.
## Output 4.65 µM (active)

----------
# Potency per record follows
Method Description: qHTS Assay for Modulators of miRNAs and/or Inhibitors of miR-21; also: potency is read from the fitted curve at half-maximal effect; nearly all actives have a fitted effect of over 55% in size
Measurement Setup: HeLa miR-21-FLuc reporter, luciferase luminescence, 48 h; actives lower the signal
In all, about 340,000 compounds went through this assay and about 3,300 (0.97%) were called active. About 9% were inconclusive and are not listed. The list shows a part of the results.

Examples with their reported Potency follow.
## Input Supply measured Potency of CC(C)OC(=O)CSc1nc(N)c(C#N)cc1C#N in your reply.
## Output 5.85 µM (active)

## Input Supply measured Potency of COc1cc(NC(=O)c2ccccc2Cl)ccc1NC(=O)c1ccco1 in your reply.
## Output 2.93 µM (active)

## Input Supply measured Potency of COc1ccc(NC(=O)c2ccc(-c3ccccc3Cl)o2)cc1 in your reply.
## Output 7.36 µM (active)

Others:
## Input Supply measured Potency of O=c1c(Br)c(N2CCCC2)cnn1-c1ccccc1 in your reply.
## Output 1.85 µM (active)

## Input Supply measured Potency of O=C(Nc1cccc(F)c1)c1ccc(-c2ccccc2Cl)o1 in your reply.
## Output 2.93 µM (active)

## Input Supply measured Potency of COc1ccccc1/C=C/C1=NC(=C\N(C)C)/C(=O)O1 in your reply.
## Output 14.7 µM (active)

## Input Supply measured Potency of COc1ccc(Cl)cc1-c1nc(-c2ccc(NC(=O)c3cccs3)cc2)no1 in your reply.
## Output 7.36 µM (active)

## Input Supply measured Potency of O=c1c2c3c(sc2ncn1-n1cccc1)CCCCC3 in your reply.
## Output 11.7 µM (active)

## Input Supply measured Potency of O=C(O)c1cccc(NC(=S)N/N=C/c2ccccc2OCc2ccc(Br)cc2)c1 in your reply.
## Output 11.7 µM (active)

## Input Supply measured Potency of Cc1cccnc1Nc1nc(-c2ccc(O)cc2O)cs1 in your reply.
## Output 5.21 µM (active)

## Input Supply measured Potency of CCOC(=O)CSc1nc(N)c(C#N)cc1C#N in your reply.
## Output 8.26 µM (active)

## Input Supply measured Potency of COc1cc(NC(=O)c2ccccc2Cl)ccc1NC(=O)c1cccs1 in your reply.
## Output 2.07 µM (active)

----------
Method Description: qHTS Assay for Modulators of miRNAs and/or Inhibitors of miR-21; also: potency is read from the fitted curve at half-maximal effect; nearly all actives have a fitted effect of over 55% in size
Measurement Setup: HeLa miR-21-FLuc reporter, luciferase luminescence, 48 h; actives lower the signal
Hit rate of the full screen: of about 340,000 compounds, about 3,300 (0.97%) were called active. Not shown: some 9% with an inconclusive outcome. This is one part of the list.
# Potency per record follows

Examples with their reported Potency follow.
## Input Supply measured Potency of O=C(O)c1ccc(N/N=C/c2cccc3cccnc23)cc1 in your reply.
## Output 0.369 µM (active)

## Input Supply measured Potency of N#Cc1cc2cc3c(cc2nc1SCC(=O)N1CCOCC1)OCO3 in your reply.
## Output 0.656 µM (active)

## Input Supply measured Potency of Cc1ccc(O)c(NC(=O)c2cc(-c3ccccc3)on2)c1 in your reply.
## Output 2.61 µM (active)

## Input Supply measured Potency of O=C(O)C(=O)/C(=C\c1ccsc1)c1ccc2ccccc2n1 in your reply.
## Output 1.47 µM (active)

## Input Supply measured Potency of O=C(O)c1ccc(N/N=C/C=C/c2ccccc2[N+](=O)[O-])cc1 in your reply.
## Output 4.65 µM (active)

## Input Supply measured Potency of O=C(O)c1ccc(N/N=C/c2ccnc3ccccc23)cc1 in your reply.
## Output 3.69 µM (active)

## Input Supply measured Potency of Brc1c(CSc2nc3ccccc3o2)nc2ncccn12 in your reply.
## Output 7.36 µM (active)

## Input Supply measured Potency of N#Cc1ccc(/C=C(\C(=O)C(=O)O)c2ccc3ccccc3n2)cc1 in your reply.
## Output 1.04 µM (active)

## Input Supply measured Potency of Cc1ccc(O)c(NC(=O)c2cc(-c3ccco3)on2)c1 in your reply.
## Output 13.1 µM (active)

## Input Supply measured Potency of O=C(Nc1cc(Cl)ccc1O)c1cc(-c2ccco2)on1 in your reply.
## Output 16.5 µM (active)

Others:
## Input Supply measured Potency of CC1CCC/C(=N\Nc2ccc(Cl)c(C(=O)O)c2)C1 (configuration not stated) in your reply.
## Output 6.56 µM (active)

## Input Supply measured Potency of CCn1c(O)c(/C=C2\C=Nc3ccccc32)sc1=O in your reply.
## Output 1.17 µM (active)

----------
Method Description: qHTS Assay for Modulators of miRNAs and/or Inhibitors of miR-21; also: potency is read from the fitted curve at half-maximal effect; nearly all actives have a fitted effect of over 55% in size
Measurement Setup: HeLa miR-21-FLuc reporter, luciferase luminescence, 48 h; actives lower the signal
Text: MLSCN Grant: 1 R21 NS059478-01 Assay Provider: Qihong Huang, The Wistar Institute NCGC Assay Overview: MicroRNAs (miRNAs) are endogenously encoded small (~20-25 nucleotides), nonprotein-coding RNAs that are involved in post-transcriptional repression of target messenger RNAs (mRNAs) (Le and Hannon, 2004). […]
Among all 340,000 compounds or so, about 3,300 (0.97%) were called active. Not shown: some 9% with an inconclusive outcome. The list shows a part of the results.
# Potency per record follows

Examples with their reported Potency follow.
## Input Supply measured Potency of O=C(CSc1ccc(-c2ccccc2)nn1)Nc1ccc2c(c1)OCCO2 in your reply.
## Output 8.26 µM (active)

## Input Supply measured Potency of Cc1ccc(OC(=O)c2cccc(S(=O)(=O)N3CCCC3)c2)c(-n2nc3ccccc3n2)c1 in your reply.
## Output 2.61 µM (active)

## Input Supply measured Potency of O=[N+]([O-])c1ccccc1-c1nc(-c2ccc(Br)o2)no1 in your reply.
## Output 1.47 µM (active)

## Input Supply measured Potency of O=C(Nc1ncc(Cc2cccc(Cl)c2)s1)C1CCCO1 (stereo not drawn) in your reply.
## Output 7.36 µM (active)

## Input Supply measured Potency of O=C(NC1CCCC1)c1cc(-c2cccc(Cl)c2)on1 in your reply.
## Output 4.65 µM (active)

## Input Supply measured Potency of CC1CCCC(C)N1C(=O)c1cc(-c2cccs2)on1 (stereo not drawn) in your reply.
## Output 16.5 µM (active)

## Input Supply measured Potency of N/C(=N\OC(=O)c1ccco1)c1ccc(Cl)cc1 in your reply.
## Output 4.65 µM (active)

## Input Supply measured Potency of CC(C)Nc1oc(-c2cccc3ccccc23)nc1C#N in your reply.
## Output 13.1 µM (active)

Others:
## Input Supply measured Potency of COc1ccc(C(=O)Nc2ccc3cn[nH]c3c2)c(OC)c1 in your reply.
## Output 4.65 µM (active)

## Input Supply measured Potency of O=C(NCc1ccco1)c1cc(-c2cccs2)on1 in your reply.
## Output 5.85 µM (active)
